Reference source for all entries: the supplement of paper PMC9112550

system: Escherichia coli TOP10; test: shrunken log2 fold change of peptide-encoding DNA abundance (4.5 h post-induction vs induction); higher = less antimicrobial activity (less host growth inhibition); details: time post-induction: 4.5 h; library: site-saturation at positions 5, 18, 19, 20
Measured shrunken log2 fold change, listed per entry.
Enter the number alone.

Value of shrunken log2 fold change reported for the sequence RRIRSRPPRLPRPRPRPCYKPRP is -0.281

// shrunken log2 fold change lookup, sequence = RRIRNRPPRLPRPRPRPRLTPRP , result: 0.252

// field: shrunken log2 fold change; key: RRIRYRPPRLPRPRPRPIQLPRP ; value = -0.0605

Short answer for RRIRPRPPRLPRPRPRPAYFPRP : shrunken log2 fold change was -0.16

RRIRWRPPRLPRPRPRPEIPPRP has a reported shrunken log2 fold change of -0.142

Summary for this sequence, RRIRTRPPRLPRPRPRPQFEPRP : shrunken log2 fold change is 0.0219

Recorded shrunken log2 fold change (sequence RRIRCRPPRLPRPRPRPCATPRP ): 0.16

The measured shrunken log2 fold change associated with RRIRCRPPRLPRPRPRPGVRPRP reads 0.32

Briefly, shrunken log2 fold change measured for RRIRPRPPRLPRPRPRPLPDPRP : 0.179

The recorded shrunken log2 fold change for RRIRKRPPRLPRPRPRPRMWPRP is 0.377

More entries:
shrunken log2 fold change measured on RRIRARPPRLPRPRPRPKIGPRP = 0.458

For reference, reported shrunken log2 fold change for RRIRIRPPRLPRPRPRPMKKPRP stands at 0.0138

For record RRIRLRPPRLPRPRPRPAITPRP the listed shrunken log2 fold change is -0.252

Notebook: RRIRKRPPRLPRPRPRPTIVPRP , shrunken log2 fold change read as -0.0951

Record summary for RRIRLRPPRLPRPRPRPGVEPRP : reported shrunken log2 fold change = 0.0194

Per the records, this sequence ( RRIRQRPPRLPRPRPRPSPQPRP ) has shrunken log2 fold change equal to 0.548

shrunken log2 fold change for RRIRCRPPRLPRPRPRPNIWPRP is -0.178

// shrunken log2 fold change lookup, sequence = RRIRFRPPRLPRPRPRPVSGPRP , result: -0.0636

shrunken log2 fold change measured on RRIRNRPPRLPRPRPRPTFSPRP = -0.269

# sequence RRIRKRPPRLPRPRPRPGRIPRP ; its shrunken log2 fold change = -0.0354

Recorded shrunken log2 fold change (sequence RRIRNRPPRLPRPRPRPLYCPRP ): -0.793

According to the records, this sequence RRIRARPPRLPRPRPRPERGPRP displays shrunken log2 fold change of 0.305

---

system: Escherichia coli TOP10; assay: shrunken log2 fold change of peptide-encoding DNA abundance (4.5 h post-induction vs induction); higher = less antimicrobial activity (less host growth inhibition); conditions: time post-induction: 4.5 h; library: site-saturation at positions 5, 18, 19, 20
QUANTITY KIND: shrunken log2 fold change

Check out these entries, answers already filled in.
Item: RRIRWRPPRLPRPRPRPRYAPRP | System: Escherichia coli TOP10 | shrunken log2 fold change: 0.32

// returns shrunken log2 fold change for RRIRVRPPRLPRPRPRPDCDPRP with Escherichia coli TOP10; value = -0.102

Field shrunken log2 fold change (Escherichia coli TOP10), entry RRIRCRPPRLPRPRPRPYPEPRP : -0.0664

***
Item RRIRHRPPRLPRPRPRPSEEPRP was tested on Escherichia coli TOP10; the reported shrunken log2 fold change is -0.00149

Log: Escherichia coli TOP10, sequence RRIRVRPPRLPRPRPRPNAIPRP , shrunken log2 fold change = 0.0894

RRIRKRPPRLPRPRPRPWMYPRP tested on Escherichia coli TOP10 gave shrunken log2 fold change: -0.122

Entry RRIRPRPPRLPRPRPRPPINPRP : shrunken log2 fold change on Escherichia coli TOP10 = -0.158

Given the sequence RRIRLRPPRLPRPRPRPDSVPRP and test system Escherichia coli TOP10, the measured shrunken log2 fold change is 0.0031

Record RRIRGRPPRLPRPRPRPRCDPRP / Escherichia coli TOP10, shrunken log2 fold change recorded as 0.629

Measured shrunken log2 fold change for this entry RRIRRRPPRLPRPRPRPWTWPRP on Escherichia coli TOP10: -0.008

Short answer on Escherichia coli TOP10 for RRIRTRPPRLPRPRPRPMAEPRP , shrunken log2 fold change: 0.117

Entry RRIRRRPPRLPRPRPRPQVYPRP , Escherichia coli TOP10 data, shrunken log2 fold change value: -0.0473

Escherichia coli TOP10 data for RRIRDRPPRLPRPRPRPYKIPRP ; its shrunken log2 fold change: -1.46

---

system: Escherichia coli TOP10; test: shrunken log2 fold change of peptide-encoding DNA abundance (4.5 h post-induction vs induction); higher = less antimicrobial activity (less host growth inhibition); settings: time post-induction: 4.5 h; library: site-saturation at positions 5, 18, 19, 20
Quick list: shrunken log2 fold change per entry.
The answer should be written as a number, with no unit following it.

Recorded shrunken log2 fold change, per entry:
Readout shrunken log2 fold change for RRIRWRPPRLPRPRPRPCTWPRP , test system Escherichia coli TOP10, was -0.217

Bench note, Escherichia coli TOP10: RRIRCRPPRLPRPRPRPMSRPRP , shrunken log2 fold change reads 0.0291

With Escherichia coli TOP10 as the test system, RRIRSRPPRLPRPRPRPYDMPRP showed shrunken log2 fold change of -0.122

The sequence RRIRARPPRLPRPRPRPNHWPRP , tested on Escherichia coli TOP10, showed shrunken log2 fold change of 0.0522

More entries:
// assay Escherichia coli TOP10, entry RRIRQRPPRLPRPRPRPTYVPRP , shrunken log2 fold change value = -0.161

Lab note: sequence RRIRVRPPRLPRPRPRPMLAPRP tested on Escherichia coli TOP10; recorded shrunken log2 fold change was 0.446

Log: Escherichia coli TOP10, sequence RRIRDRPPRLPRPRPRPFPHPRP , shrunken log2 fold change = -0.303

Here RRIRWRPPRLPRPRPRPLRTPRP was tested on Escherichia coli TOP10, and its shrunken log2 fold change came to 1.39

Simply: RRIRQRPPRLPRPRPRPMFKPRP , Escherichia coli TOP10, shrunken log2 fold change = -0.572

---

Listed below: shrunken log2 fold change values for each entry.
test system: Escherichia coli TOP10; assay: shrunken log2 fold change of peptide-encoding DNA abundance (4.5 h post-induction vs induction); higher = less antimicrobial activity (less host growth inhibition); conditions: time post-induction: 4.5 h; library: site-saturation at positions 5, 18, 19, 20
A bare number is all that is needed in reply.

Entry RRIRQRPPRLPRPRPRPMPDPRP , shrunken log2 fold change reported as -0.0292

The recorded shrunken log2 fold change for entry RRIRKRPPRLPRPRPRPKRNPRP equals 0.689

So, RRIRDRPPRLPRPRPRPRPSPRP ? Its shrunken log2 fold change was 0.329

The sequence RRIRSRPPRLPRPRPRPQTKPRP showed shrunken log2 fold change equal to -0.0915

For this sequence ( RRIRMRPPRLPRPRPRPDFMPRP ), measured shrunken log2 fold change is -0.0119

So, RRIRIRPPRLPRPRPRPIDAPRP ? Its shrunken log2 fold change was -0.215

Field shrunken log2 fold change (entry RRIRRRPPRLPRPRPRPQLLPRP ) reads 0.537

shrunken log2 fold change measured on RRIRFRPPRLPRPRPRPYMYPRP = -0.635

Reported shrunken log2 fold change ( RRIRLRPPRLPRPRPRPWPIPRP ) = 0.0461

// sample RRIRDRPPRLPRPRPRPDKHPRP , its shrunken log2 fold change was -0.0761

For this sequence ( RRIRQRPPRLPRPRPRPKCGPRP ), measured shrunken log2 fold change is 0.354

So, RRIRDRPPRLPRPRPRPRQCPRP ? Its shrunken log2 fold change was -0.0309

Kindly note the recorded shrunken log2 fold change for RRIRGRPPRLPRPRPRPWWCPRP , which is 0.127

The sequence RRIRERPPRLPRPRPRPFPTPRP showed shrunken log2 fold change equal to -0.573

// shrunken log2 fold change value for RRIRLRPPRLPRPRPRPYNFPRP : -0.0404

The measured shrunken log2 fold change associated with RRIRYRPPRLPRPRPRPQDEPRP reads -0.0312

For this sequence ( RRIRSRPPRLPRPRPRPAPNPRP ), measured shrunken log2 fold change is 0.329

Form: sequence = RRIRMRPPRLPRPRPRPDCIPRP ; shrunken log2 fold change = 1.76

---

test system: Escherichia coli TOP10; assay: shrunken log2 fold change of peptide-encoding DNA abundance (4.5 h post-induction vs induction); higher = less antimicrobial activity (less host growth inhibition); conditions: time post-induction: 4.5 h; library: site-saturation at positions 5, 18, 19, 20;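 also: peptides expressed intracellularly from a pBAD plasmid library in pooled LB shake-flask culture, induced with 0.3% L-arabinose, DNA abundance read by NGS, three biological replicates, DESeq2 with apeglm shrinkage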
QUANTITY KIND: shrunken log2 fold change
Respond with the number and no other words.

Use these answered entries as a reference point.
Summary for this sequence, RRIRTRPPRLPRPRPRPMYIPRP : shrunken log2 fold change is -1.2

Recorded shrunken log2 fold change (sequence RRIRNRPPRLPRPRPRPFMLPRP ): -1.17

Summary for this sequence, RRIRPRPPRLPRPRPRPLHYPRP : shrunken log2 fold change is -0.11

Further cases:
shrunken log2 fold change recorded for this sequence, RRIRPRPPRLPRPRPRPFKKPRP , is -0.161

Record RRIRARPPRLPRPRPRPHWHPRP . Reported shrunken log2 fold change: -0.0354

Sure, the documented shrunken log2 fold change for RRIRTRPPRLPRPRPRPKPMPRP is 0.0287

The recorded shrunken log2 fold change for RRIRQRPPRLPRPRPRPHPMPRP is -0.185

The sequence listed as RRIRVRPPRLPRPRPRPGPPPRP has a reported shrunken log2 fold change of 0.564

shrunken log2 fold change measured on RRIRYRPPRLPRPRPRPTRWPRP = 0.211

So for RRIRFRPPRLPRPRPRPRNAPRP , the logged shrunken log2 fold change turned out to be 0.347

Reported shrunken log2 fold change of RRIRIRPPRLPRPRPRPSHIPRP : -0.879

Reported shrunken log2 fold change for RRIRQRPPRLPRPRPRPSSKPRP was -0.623

Short answer for RRIRTRPPRLPRPRPRPQWTPRP : shrunken log2 fold change was -1.27

Reported shrunken log2 fold change of RRIRFRPPRLPRPRPRPRRTPRP : 0.375

Per the records, this sequence ( RRIRWRPPRLPRPRPRPCILPRP ) has shrunken log2 fold change equal to -0.39
